- Test system: HL60 cells
- assayRemarks: AsedaSciences SYSTEMETRIC Cell Health Screen (flow cytometry toxicity profiling)
- testSettings: SYSTEMETRIC Cell Health Screen; assay n=2
Recorded Cell Health Toxcity Profile GSH (Glutathione) by entry
Number, no unit, nothing else.

# smilesStr, targetOrSystem, measValue
rows = [
    ("C#Cc1cccc(Nc2c(C#N)cnc3ccc(I)cc23)c1", "HL60 cells", 0.93),
    ("C#Cc1cccc(Nc2c(C#N)cnc3cc(OC)c(OC)cc23)c1", "HL60 cells", 0.071),
]

Request: Bench note: what Cell Health Toxcity Profile GSH (Glutathione) did C#Cc1cccc(Nc2c(C#N)cnc3ccccc23)c1 show?
Result: 0.98

Request: # get_value(readout='Cell Health Toxcity Profile GSH (Glutathione)', item= C#Cc1cccc(Nc2c(C#N)cnc3cc(I)ccc23)c1 )
Result: 0.98

Request: Tell me the measured Cell Health Toxcity Profile GSH (Glutathione) of C#Cc1cccc(Nc2c(C#N)cnc3ccc(S(C)(=O)=O)cc23)c1 , please.
Result: 0.039

---

- Tested on: HL60 cells
- assayRemarks: AsedaSciences SYSTEMETRIC Cell Health Screen (flow cytometry toxicity profiling)
- testSettings: HL60, 4 h, 5 nM–100 µM, probability 0–1, n = 2
outcomeMeasure: MMP: Mitochondrial membrane depolarization score
// no unit string in output, number only

# compound, measValue
measured = [
    ("C#Cc1cccc(Nc2ncnc3ccc(C(F)(F)F)cc23)c1 [Compound 10]", 0.74),
    ("Cc1ccnc2c1NC(=O)c1cccnc1N2C1CC1 [Nevirapine, reference compound]", 0.010),
    ("C=C(C)[C@H]1Cc2c(ccc3c2O[C@@H]2COc4cc(OC)c(OC)cc4[C@@H]2C3=O)O1 [Rotenone, reference compound]", 0.99),
]

Request: Entry C#Cc1cccc(Nc2c(C#N)cnc3ccc(I)cc23)c1 [Compound 28] has what MMP: Mitochondrial membrane depolarization score?
Result: 0.99

Request: // lookup MMP: Mitochondrial membrane depolarization score for C#Cc1cccc(Nc2ncnc3ccc(C#N)cc23)c1 [Compound 18]
Result: 0.11

Request: What MMP: Mitochondrial membrane depolarization score value was documented for this compound, CCC(C)(C)C(=O)O[C@H]1C[C@@H](C)C=C2C=C[C@H](C)[C@H](CC[C@@H]3C[C@@H](O)CC(=O)O3)[C@H]21 [Simvastatin, reference compound] ?
Result: 0.060

Request: Reported MMP: Mitochondrial membrane depolarization score for C#Cc1cccc(Nc2ccnc3ccc(I)cc23)c1F [Compound 35] : what is it?
Result: 0.47

Request: Could you tell me which MMP: Mitochondrial membrane depolarization score is on file for Cc1ccc(-c2cc(C(F)(F)F)nn2-c2ccc(S(N)(=O)=O)cc2)cc1 [Celecoxib, reference compound] ?
Result: 0.51

---

- Tested on: HL60 cells
- assayRemarks: AsedaSciences SYSTEMETRIC Cell Health Screen (flow cytometry toxicity profiling)
- testSettings: HL60, 4 h, 5 nM–100 µM, probability 0–1, n = 2
outcomeMeasure: MMP: Mitochondrial membrane depolarization score
Simply state the number, no unit and no words.

Below: 2 molecules and their reported MMP: Mitochondrial membrane depolarization score.
# molecule, measValue
rows = [
    ("C#Cc1cccc(Nc2ncnc3ccc(OC)cc23)c1", 0.019),
    ("COc1ccc(/C=C/C(=O)Nc2ccccc2C(=O)O)cc1OC [Tranilast, reference compound]", 0.17),
]

Request: Could you share which MMP: Mitochondrial membrane depolarization score value was measured for CC(C)(C)c1ccc(C(O)CCCN2CCC(C(O)(c3ccccc3)c3ccccc3)CC2)cc1 (centres unmarked) [Terfenadine, reference compound] ?
Result: 1.00

Request: # MMP: Mitochondrial membrane depolarization score lookup, item C#Cc1ccc(F)c(Nc2ncnc3cc(I)ccc23)c1
Result: 0.96

Request: Suppose we examine the molecule C#Cc1cc(Nc2ncnc3cc(I)ccc23)ccc1Cl ; what MMP: Mitochondrial membrane depolarization score value has been reported?
Result: 1.00

Request: Which value of MMP: Mitochondrial membrane depolarization score has been reported for CN(C)CCOC(c1ccccc1)c1ccccc1 [Diphenhydramine, reference compound] in the records?
Result: 0.030

Request: What value of measured MMP: Mitochondrial membrane depolarization score is listed for C#Cc1cc(Nc2ncnc3cc(OC)c(OC)cc23)ccc1Cl ?
Result: 0.48

Request: Tell me the measured MMP: Mitochondrial membrane depolarization score of COc1cc2c(Nc3ccc(Cl)c(Cl)c3F)ncnc2cc1OC[C@@H]1C[C@@H]2CN(C)C[C@@H]2C1 [Tesevatinib, reference compound] , please.
Result: 1.00

---

- Test system: HL60 cells
- assayRemarks: AsedaSciences SYSTEMETRIC Cell Health Screen (flow cytometry toxicity profiling)
- testSettings: HL60, 4 h, 5 nM–100 µM, probability 0–1, n = 2
Each entry falls into one class according to its MMP: Mitochondrial membrane depolarization score; the ranges are interval 1 (below 0.06), interval 2 (0.06 to below 0.6), interval 3 (0.6 or more)

# compound, targetOrSystem, answerLabel
records = [
    ("C#Cc1ccc(F)c(Nc2ncnc3ccc(I)cc23)c1", "HL60 cells", "interval 1"),
    ("[H]/N=C(/N)N/C(=N/[H])NCCc1ccccc1 [Phenformin, reference compound]", "HL60 cells", "interval 2"),
    ("C#Cc1cccc(Nc2ncnc3cc(OC)c(OC)cc23)c1F", "HL60 cells", "interval 2"),
    ("C#Cc1cccc(Nc2ncnc3cc(C#N)ccc23)c1", "HL60 cells", "interval 2"),
    ("CCc1nn(CCCN2CCN(c3cccc(Cl)c3)CC2)c(=O)n1CCOc1ccccc1 [Nefazodone, reference compound]", "HL60 cells", "interval 3"),
]

Turning now to a further record.
Request: Please indicate the class for C#Cc1cc(Nc2ncnc3ccc(I)cc23)ccc1Cl based on its MMP: Mitochondrial membrane depolarization score.
Result: interval 2

---

Each entry below carries its reported GSH: Glutathione score.
- Test system: HL60 cells
- assayRemarks: AsedaSciences SYSTEMETRIC Cell Health Screen (flow cytometry toxicity profiling)
- testSettings: HL60, 4 h, 5 nM–100 µM, probability 0–1, n = 2
Please reply with the number alone, leaving off any unit.

Examples with their reported GSH: Glutathione score follow.
# molecule, targetOrSystem, measValue
records = [
    ("CSc1ccc2c(c1)N(CCC1CCCCN1C)c1ccccc1S2 (stereo not shown) [Thioridazine, reference compound]", "HL60 cells", 1.00),
    ("CC1(C)NC(=O)N(c2ccc([N+](=O)[O-])c(C(F)(F)F)c2)C1=O [Nilutamide, reference compound]", "HL60 cells", 0.040),
    ("O=C1CC2(CCCC2)CC(=O)N1CCCCN1CCN(c2ncccn2)CC1 [Buspirone, reference compound]", "HL60 cells", 0.080),
]

Let's switch to this molecule now.
Request: Reported GSH: Glutathione score for HL60 cells, given COc1cc2c(Nc3ccc(Cl)c(Cl)c3F)ncnc2cc1OC[C@@H]1C[C@@H]2CN(C)C[C@@H]2C1 [Tesevatinib, reference compound] ?
Result: 1.00

---

- Tested on: HL60 cells
- assayRemarks: AsedaSciences SYSTEMETRIC Cell Health Screen (flow cytometry toxicity profiling)
- testSettings: SYSTEMETRIC Cell Health Screen; classifier output; assay n=2
outcomeMeasure: Cell Health Toxcity Profile CHI
The response must contain the number and no unit.

Request: Which Cell Health Toxcity Profile CHI is reported for this compound? C#Cc1cccc(Nc2c(C#N)cnc3cc(OC)ccc23)c1
Result: 0.44

Request: I would be grateful if you could share the reported Cell Health Toxcity Profile CHI for C#Cc1cccc(Nc2c(C#N)cnc3cc(Cl)ccc23)c1 .
Result: 0.35

Request: Which Cell Health Toxcity Profile CHI is reported for this compound? C#Cc1cccc(Nc2c(C#N)cnc3ccc(Br)cc23)c1
Result: 0.75

Request: What value of measured Cell Health Toxcity Profile CHI is listed for C#Cc1cccc(Nc2c(C#N)cnc3ccc(F)cc23)c1 ?
Result: 0.69

Request: What value of Cell Health Toxcity Profile CHI has been recorded for this entry: C#Cc1cccc(Nc2c(C#N)cnc3ccc(I)cc23)c1
Result: 0.70

Request: Entry under review: C#Cc1cccc(Nc2c(C#N)cnc3cc(Br)ccc23)c1 . Reported Cell Health Toxcity Profile CHI?
Result: 0.59

Request: # get_value(readout='Cell Health Toxcity Profile CHI', item= C#Cc1cccc(Nc2c(C#N)cnc3ccccc23)c1 )
Result: 0.70

Request: Would you kindly share the measured Cell Health Toxcity Profile CHI for C#Cc1cccc(Nc2c(C#N)cnc3ccc(OC)cc23)c1 ?
Result: 0.26

Request: For C#Cc1cccc(Nc2c(C#N)cnc3ccc(S(C)(=O)=O)cc23)c1 , what is its reported Cell Health Toxcity Profile CHI?
Result: 0.16

Request: So what's the measured Cell Health Toxcity Profile CHI for this one? C#Cc1cccc(Nc2c(C#N)cnc3ccc(Cl)cc23)c1
Result: 0.83

Request: Which value of Cell Health Toxcity Profile CHI has been reported for C#Cc1cccc(Nc2c(C#N)cnc3cc(OC)c(OC)cc23)c1 in the records?
Result: 0.40

Request: For the compound C#Cc1cccc(Nc2c(C#N)cnc3cc(I)ccc23)c1 , what Cell Health Toxcity Profile CHI is on record?
Result: 0.81

Hey, just so you know, these numbers are from paper PMC9329436.
